ASSAYED SYSTEM: β-secretase (BACE) (Homo sapiens, UniProt P56817)
Construct: purchased Panvera
Sequence (P56817 46-501): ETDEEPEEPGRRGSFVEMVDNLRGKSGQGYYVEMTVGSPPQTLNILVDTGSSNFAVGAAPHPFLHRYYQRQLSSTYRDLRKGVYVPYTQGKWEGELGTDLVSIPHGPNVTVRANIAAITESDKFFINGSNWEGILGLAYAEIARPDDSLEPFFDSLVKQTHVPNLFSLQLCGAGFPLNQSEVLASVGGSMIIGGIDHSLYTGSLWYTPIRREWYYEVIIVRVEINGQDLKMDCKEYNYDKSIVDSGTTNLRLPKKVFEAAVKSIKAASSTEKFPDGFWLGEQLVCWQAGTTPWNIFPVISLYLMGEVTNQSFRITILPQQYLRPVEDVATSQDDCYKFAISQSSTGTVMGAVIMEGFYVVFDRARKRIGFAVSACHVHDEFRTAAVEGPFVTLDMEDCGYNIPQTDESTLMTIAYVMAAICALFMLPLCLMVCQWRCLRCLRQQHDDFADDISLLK
PROTOCOL: BACE FS1 Assay (% Inhibition and Ki)
Type: biochemical
RUN PARAMETERS: 0.3 μM test compound; FS1 substrate; read-out: % Inhibition (FS) @ 0.3 μM
Counter-ions that a name gives are not always drawn.
OBSERVABLE: inhibition at 0.3 µM (%)
# unit: % | format: bare number

Kindly note the recorded inhibition at 0.3 µM for CC(C)C(CCC(=O)N(C)C1CCC(C(=O)O)CC1)N1Cc2cc(Oc3ccccc3)ncc2N=C1N (stereo not shown) , which is 106

Kindly note the recorded inhibition at 0.3 µM for CC(C)[C@H](CCC(=O)N(CCO)C1CCCCC1)N1Cc2cc(Oc3ccccc3)ncc2N=C1N , which is 129

Kindly note the recorded inhibition at 0.3 µM for CCOC(=O)CCN(C)C(=O)CC[C@@H](C(C)C)N1Cc2cc(Oc3ccccc3)ncc2N=C1N , which is 68

Kindly note the recorded inhibition at 0.3 µM for NC1=Nc2cnc(Oc3ccccc3)cc2CN1CCCC(=O)NC1C2CC3CC(C2)CC1C3 (stereo not shown) , which is 122

Kindly note the recorded inhibition at 0.3 µM for CC(C)[C@H](CCC(=O)N(C)[C@@H](COCc1ccccc1)C(=O)O)N1Cc2cc(Oc3ccccc3)ncc2N=C1N [Compound 52, trifluoroacetate salt] , which is 107

Kindly note the recorded inhibition at 0.3 µM for CC(C)[C@H](CCC(=O)N(CCO)C(C)C)N1Cc2cc(Oc3ccccc3)ncc2N=C1N , which is 51

Kindly note the recorded inhibition at 0.3 µM for CC(C)C(CCC(=O)N(C)C1CCC(C#N)CC1)N1Cc2cc(Oc3ccccc3)ncc2N=C1N (stereo not shown) , which is 47

src = patent US7531545B2
